The entries below come with measured pest or weed control at 0.2 ppm values attached.
test system: Chilo suppressalis (Rice Stem Borer); experiment: Chilo suppressalis (Rice Stem Borer) treated rice leaf petri dish test, mortality; type: in vivo; settings: Chilo suppressalis, read-out: Control/%
Output spec: scalar in %, unitless text.

Illustrative cases are given below, each with its answer.
| molecule | display.unit | pest or weed control at 0.2 ppm |
| --- | --- | --- |
| Cc1cc(C2=NOC(c3cc(Cl)cc(Cl)c3)(C(F)(F)F)C2)ccc1C(=O)NC1CSC1 (stereo not drawn) | % | 93 |
| Cc1cc(C2=NOC(c3cc(Cl)c(Br)c(Cl)c3)(C(F)(F)F)C2)ccc1C(=O)NC1(C)CSC1 (stereo not drawn) [drawing 26] | % | 40 |
| CC1(NC(=O)c2ccc(C3=NO[C@@](c4cc(Cl)cc(Cl)c4)(C(F)(F)F)C3)cc2Cl)CSC1 [drawing 28] | % | 80 |
| Cc1cc(C2=NOC(c3cc(Cl)c(Br)c(Cl)c3)(C(F)(F)F)C2)ccc1C(=O)NC1CSC1 (stereo not drawn) [drawing 25] | % | 97 |
| Cc1cc(C2=NOC(c3cc(Cl)cc(Cl)c3)(C(F)(F)F)C2)ccc1C(=O)NC1(C)CSC1 (stereo not drawn) [Reference compound, reference compound] | % | 30 |

# pest or weed control at 0.2 ppm lookup, item O=C(NC1CSC1)c1ccc(C2=NO[C@@](c3cc(Cl)cc(Cl)c3)(C(F)(F)F)C2)cc1Cl [drawing 27]
93
